Reported % of compound remaining when incubated in human liver microsomes with NADPH values for a set of compounds
runDescription: In vitro microsomal stability, human
Format: in vitro ADME
conditionInfo: human liver microsomes, NADPH, 15 min
measuredEndpoint: % of compound remaining when incubated in human liver microsomes with NADPH

- compound: "CC(C)(C)C[C@H]1N[C@@H](C(=O)NCCC(C)(O)CO)[C@H](c2cccc(Cl)c2)[C@@]12C(=O)Nc1cc(Cl)c(F)cc12 (stereo partly shown)"
  valueReported: "81.61%"
- compound: "CC(C)(C)C[C@H]1N[C@@H](C(=O)N[C@H]2CC[C@@H](O)C2)[C@H](c2cccc(Cl)c2)[C@@]12C(=O)Nc1cc(Cl)c(F)cc12"
  valueReported: "11.38%"
- compound: "CC(C)(C)C[C@H]1N[C@@H](C(=O)NC2CCC(NS(C)(=O)=O)CC2)[C@H](c2cccc(Cl)c2F)[C@@]12C(=O)Nc1cc(Cl)ccc12 (stereo partly shown) [MI-771]"
  valueReported: "4.30%"
- compound: "CC(C)(C)C[C@H]1N[C@@H](C(=O)NC2CCC(O)CC2)[C@H](c2cccc(Cl)c2F)[C@@]12C(=O)Nc1cc(Cl)ccc12 (stereo partly shown)"
  valueReported: "69.38%"
- compound: "CC(C)(C)C[C@H]1N[C@@H](C(=O)NC2CCC(NS(C)(=O)=O)CC2)[C@H](c2cccc(Cl)c2F)[C@@]12C(=O)Nc1cc(Cl)ccc12 (stereo partly shown) [MI-772]"
  valueReported: "82.24%"
- compound: "CC(C)(C)C[C@H]1N[C@@H](C(=O)NCC[C@H](O)CN2CC[C@@H](O)C2)[C@H](c2cccc(Cl)c2)[C@@]12C(=O)Nc1cc(Cl)c(F)cc12"
  valueReported: "49.52%"
- compound: "CC(C)(C)C[C@H]1N[C@@H](C(=O)N[C@H]2CC[C@@H](O)C2)[C@H](c2cccc(Cl)c2F)[C@@]12C(=O)Nc1cc(Cl)ccc12"
  valueReported: "3.95%"
- compound: "CC(C)(C)C[C@H]1N[C@@H](C(=O)NCC[C@H](O)CN2CCCC2)[C@H](c2cccc(Cl)c2)[C@@]12C(=O)Nc1cc(Cl)c(F)cc12"
  valueReported: "77.40%"
- compound: "CC(C)(C)C[C@H]1N[C@@H](C(=O)NCC[C@H](O)CNC(C)(C)C)[C@H](c2cccc(Cl)c2)[C@@]12C(=O)Nc1cc(Cl)c(F)cc12"
  valueReported: "49.62%"
- compound: "CC(O)C(O)CCNC(=O)[C@@H]1N[C@H](CC(C)(C)C)[C@]2(C(=O)Nc3cc(Cl)c(F)cc32)[C@H]1c1cccc(Cl)c1 (stereo partly shown)"
  valueReported: "45.42%"
